Conditions: in ethanol, 293.15 K

ITEM_SMILES | solubility (mole fraction)
Oc1ccccc1/C=N/c1ccccn1 | 0.035

====

Conditions: in toluene, 288.15 K
// reported solubility (mole fraction) for each item listed
READOUT_NAME: solubility (mole fraction)

ITEM_SMILES | RECORDED_VALUE
Oc1ccccc1/C=N/c1ccccn1 | 0.316
Oc1ccc(Cl)cc1C=Nc1ccccn1 | 0.0192

====

compounds and their reported solubility (mole fraction)
Conditions: in diethyl ether, 298.15 K
READOUT_NAME: solubility (mole fraction)

ITEM_SMILES | READOUT_NAME | RECORDED_VALUE
Oc1ccccc1/C=N/c1ccccn1 | solubility (mole fraction) | 0.231
Oc1ccc(Cl)cc1C=Nc1ccccn1 | solubility (mole fraction) | 0.0105

====

Settings: in methanol, 288.15 K

ITEM_SMILES | solubility (mole fraction)
Oc1ccccc1/C=N/c1ccccn1 | 0.0255

====

Details: in dichloromethane, 273.15 K

ITEM_SMILES | solubility (mole fraction)
Oc1ccc(Cl)cc1C=Nc1ccccn1 | 0.0124

====

Details: in dichloromethane, 293.15 K

ITEM_SMILES | solubility (mole fraction)
Oc1ccc(Cl)cc1C=Nc1ccccn1 | 0.0306

====

Conditions: in diethyl ether, 293.15 K
solubility (mole fraction) values for the molecules below.

ITEM_SMILES | solubility (mole fraction)
Oc1ccccc1/C=N/c1ccccn1 | 0.17
Oc1ccc(Cl)cc1C=Nc1ccccn1 | 0.00844

====

Conditions: in dichloromethane, 268.15 K

ITEM_SMILES | solubility (mole fraction)
Oc1ccc(Cl)cc1C=Nc1ccccn1 | 0.00836

====

Conditions: in diethyl ether, 288.15 K
READOUT_NAME: solubility (mole fraction)

ITEM_SMILES | RECORDED_VALUE
Oc1ccccc1/C=N/c1ccccn1 | 0.14
Oc1ccc(Cl)cc1C=Nc1ccccn1 | 0.00728

====

Conditions: in diethyl ether, 273.15 K
Listed here are molecules together with their documented solubility (mole fraction).

ITEM_SMILES | solubility (mole fraction)
Oc1ccccc1/C=N/c1ccccn1 | 0.0673
Oc1ccc(Cl)cc1C=Nc1ccccn1 | 0.00427

====

Conditions: in diethyl ether, 303.15 K

ITEM_SMILES | solubility (mole fraction)
Oc1ccc(Cl)cc1C=Nc1ccccn1 | 0.0121

====

Details: in methanol, 283.15 K

ITEM_SMILES | solubility (mole fraction)
Oc1ccccc1/C=N/c1ccccn1 | 0.0187

====

Conditions: in dichloromethane, 303.15 K
READOUT_NAME: solubility (mole fraction)

ITEM_SMILES | READOUT_NAME | RECORDED_VALUE
Oc1ccc(Cl)cc1C=Nc1ccccn1 | solubility (mole fraction) | 0.0429

====

Conditions: in dichloromethane, 298.15 K

ITEM_SMILES | solubility (mole fraction)
Oc1ccc(Cl)cc1C=Nc1ccccn1 | 0.0355

====

Conditions: in ethanol, 288.15 K
READOUT_NAME: solubility (mole fraction)

ITEM_SMILES | READOUT_NAME | RECORDED_VALUE
Oc1ccccc1/C=N/c1ccccn1 | solubility (mole fraction) | 0.0266

====

Settings: in toluene, 283.15 K

ITEM_SMILES | solubility (mole fraction)
Oc1ccccc1/C=N/c1ccccn1 | 0.26
Oc1ccc(Cl)cc1C=Nc1ccccn1 | 0.017
